These entries and their values trace back to PubChem BioAssay AID248.

Listed here: items and their measured T/C.
Test system: L1210 leukemia ip in BDF1 mice, survival T/C
Test: NCI In Vivo Anticancer Drug Screen. Data for tumor model L1210 Leukemia (intraperitoneal) in B6D2F1 (BDF1) mice
Conditions: endpoint: mean survival time; dose: 400.0 mg/kg/injection; schedule: Q01DX001 (ip); vehicle: Klucel (hydroxypropylcellulose) (HPC); higher = longer survival
Inconclusive results and toxic doses are left out.

Req: // fetch L1210 leukemia ip in BDF1 mice, survival T/C T/C for `Nc1ccc(Cl)cc1C(=O)O`
Resp: 90 % of control

Req: // fetch L1210 leukemia ip in BDF1 mice, survival T/C T/C for CS(=O)(=O)OC1CCCCC1Oc1ccc(Br)cc1 (centres undefined)
Resp: 103 % of control

Req: // fetch L1210 leukemia ip in BDF1 mice, survival T/C T/C for O=C1CC(C(c2ccccc2)c2ccccc2)CO1 (centres undefined)
Resp: 98 % of control

Req: // fetch L1210 leukemia ip in BDF1 mice, survival T/C T/C for `Cc1ccc(NC(=O)c2ccco2)cc1Cl`
Resp: 105 % of control

====

System: L1210 leukemia ip in BDF1 mice, survival T/C
Assay: NCI In Vivo Anticancer Drug Screen. Data for tumor model L1210 Leukemia (intraperitoneal) in B6D2F1 (BDF1) mice
Details: endpoint: mean survival time; dose: 200.0 mg/kg/injection; schedule: Q04DX003 (ip); vehicle: saline; higher = longer survival
Inconclusive results and toxic doses are left out.
observed property: T/C

Below are worked cases with known answers.
- compound: "CC(=O)Oc1cccc2c1C(=O)c1ccccc1C2=O"
  observed property: "T/C"
  value observed: "97 % of control"
- compound: "Cc1ccc(-c2nc3ncnc(N)c3[nH]2)cc1N"
  observed property: "T/C"
  value observed: "94 % of control"
- compound: "CCCCCCCCCC(=O)CCCC"
  observed property: "T/C"
  value observed: "98 % of control"
- compound: "CN(N)/C(N)=N/N"
  observed property: "T/C"
  value observed: "102 % of control"
- compound: "O=c1[nH]cnc2c1nnn2C1CC(CO)C(O)C1O (stereo not drawn)"
  observed property: "T/C"
  value observed: "96 % of control"
- compound: "CCCN(CCC)CC(C)O (stereo not drawn)"
  observed property: "T/C"
  value observed: "97 % of control"
- compound: "C=CC[n+]1cccc(S(=O)(=O)[O-])c1"
  observed property: "T/C"
  value observed: "98 % of control"

Req: Given the entry C[N+](C)(C)CC1C2C=CC(C2)C1CO (stereo not drawn) , report its measured T/C.
Resp: 107 % of control

====

Listed here: items and their measured T/C.
Tested on: L1210 leukemia ip in BDF1 mice, survival T/C
Assay: NCI In Vivo Anticancer Drug Screen. Data for tumor model L1210 Leukemia (intraperitoneal) in B6D2F1 (BDF1) mice
Settings: endpoint: mean survival time; dose: 200.0 mg/kg/injection; schedule: Q01DX009 (ip); vehicle: Klucel (hydroxypropylcellulose) (HPC); higher = longer survival
Description: The antitumor activity of compounds was measured in mice bearing transplantable tumors. Survival or tumor size were measured and the results are expressed as the measurement made in the treated group (T) divided by the measurement made in the vehicle treated control group (C). The tumor model used in this assay is L1210 Leukemia (intraperitoneal) in B6D2F1 (BDF1) mice
Toxic doses and inconclusive results are not listed.

Below are worked cases with known answers.
- compound: "O=C(Nc1ccccc1C(F)(F)F)OCCOc1ccc(-c2ccccc2)cc1"
  value observed: "91 % of control"
- compound: "Cn1nc(CC(=O)O)c(C(N)=O)c1N"
  value observed: "98 % of control"
- compound: "O=Nc1ccc(O)c2ccccc12"
  value observed: "95 % of control"
- compound: "CC(C)=CCC(O)(c1ccccc1)C(C)CN(C)C (centres undefined)"
  value observed: "95 % of control"
- compound: "O=C(O)CCc1nc2ccccc2c(=O)[nH]1"
  value observed: "100 % of control"

Req: // fetch L1210 leukemia ip in BDF1 mice, survival T/C T/C for `c1ccc(Cc2cc(-c3ccccc3)n[nH]2)cc1`
Resp: 96 % of control

Req: // fetch L1210 leukemia ip in BDF1 mice, survival T/C T/C for `O=C(O)c1c(Cl)c(Cl)c(Cl)c(C(=O)O)c1Cl`
Resp: 98 % of control

Req: // fetch L1210 leukemia ip in BDF1 mice, survival T/C T/C for CCOC1=NCCCCC1OC(C)=O (centres undefined)
Resp: 104 % of control

Req: // fetch L1210 leukemia ip in BDF1 mice, survival T/C T/C for `CN(C)C/C(=N\O)c1ccc(Cl)cc1`
Resp: 100 % of control

====

Test system: L1210 leukemia ip in BDF1 mice, survival T/C
Assay: NCI In Vivo Anticancer Drug Screen. Data for tumor model L1210 Leukemia (intraperitoneal) in B6D2F1 (BDF1) mice
Conditions: endpoint: mean survival time; dose: 50.0 mg/kg/injection; schedule: Q01DX001 (ip); vehicle: saline; higher = longer survival
Toxic doses and inconclusive results are not listed.
Listed here: items and their measured T/C.

Below are worked cases with known answers.
- compound: "C/C=C/P(=O)(c1ccccc1)c1ccccc1"
  T/C: "110 % of control"
- compound: "CCC(=O)N1CCN(C(=O)CC)c2ccccc21"
  T/C: "98 % of control"

Req: Given the entry `Cc1cc(C)c(C[N+](C)(C)C)c(C)c1` , report its measured T/C.
Resp: 108 % of control

Req: Given the entry O=[N+]([O-])c1ccc(C(Cl)S(=O)(=O)c2ccccc2)cc1 (centres undefined) , report its measured T/C.
Resp: 100 % of control

====

Test system: L1210 leukemia ip in BDF1 mice, survival T/C
Assay: NCI In Vivo Anticancer Drug Screen. Data for tumor model L1210 Leukemia (intraperitoneal) in B6D2F1 (BDF1) mice
Settings: endpoint: mean survival time; dose: 100.0 mg/kg/injection; schedule: Q04DX003 (ip); vehicle: saline with Tween-80; higher = longer survival
Toxic doses and inconclusive results are not listed.
observed property: T/C

Below are worked cases with known answers.
- smiles record: "C[Si](C)(C)c1cccc(-c2ccccc2)c1"
  T/C: "101 % of control"
- smiles record: "[O-]c1on[n+](C2CCCCC2)c1-c1ccccc1"
  T/C: "95 % of control"
- smiles record: "O=C(Nc1ccccc1)SCCSC(=O)Nc1ccccc1"
  T/C: "97 % of control"

Now examine the next entry.
Req: Given the entry `ClCCCC1(c2ccc(Oc3ccccc3)cc2)OCCO1` , report its measured T/C.
Resp: 105 % of control
